parameter: melting point

Observe how each entry below is paired with its result.
COC(=O)Nc1cccc(C)c1CNc1cccn2c(CO)c(C)nc12 ... 170 to 172 °C
CC(C)(Cc1ccccc1)C(NC(=O)c1cc(Cl)cc(Cl)c1)Nc1c(Nc2cccnc2)c(=O)c1=O (centres undefined) ... 197 to 198 °C
COC(=O)c1c[nH]c(-c2ccc(OC)cc2)n1 ... 188 to 190 °C

Task item: melting point lookup needed for CCOC(=O)c1cnc2scnn2c1=O , thanks.
Reply: 228 to 230 °C

---

parameter: melting point

O=C(NCc1cccnc1)C(F)(F)F ... 102 to 104 °C
OC1(c2ccc(Cl)cc2)CCN(CCCc2noc3cc(F)ccc23)CC1 ... 142 to 145 °C
O=Cc1c(Cl)n(C2OC(CF)C(O)C2O)c2cc(Cl)c(Cl)cc12 (stereo unspecified) ... 207 to 208 °C
COc1ccc(-c2c(O)c3ccccc3[nH]c2=O)cc1OC ... 312 to 314 °C

Task item: // lookup melting point for CC(=O)Nc1cccc(-c2nn(Cc3oc4ccccc4c(=O)c3-c3ccccc3)c3ncnc(N)c23)c1
Reply: 122 to 123 °C

Task item: Please report the recorded melting point for FC(F)(F)c1ccc(/C=C/c2cc(Cl)cc(Cl)c2)cc1 .
Reply: 98 to 100 °C
